experimentDescription: Intrinsic clearance in Wistar rat liver microsomes at 2.5 uM
Type: ADME, Microsome
The following compounds are listed with their measured Intrinsic clearance values.

{"columns": ["compoundSmiles", "Intrinsic clearance / mL/min/g"],
 "data": [
  ["Fc1cc(Cn2nnc3c(Br)cccc32)ccc1Cl", 3.1],
  ["Brc1cccc2c1nnn2CC1CCCC1", 14.6],
  ["Fc1cc(Cl)ccc1-c1ccc(Cn2nnc3c(Br)cccc32)cn1", 0.4],
  ["Brc1ccc(Cn2nnc3c(Br)cccc32)nc1", 0.7],
  ["Fc1cc(Cl)ccc1-c1ccc(Cn2nnc3ccccc32)cn1", 0.8],
  ["N#Cc1cccc2c1nnn2Cc1ccc(-c2ccc(Cl)cc2F)nc1", 0.1],
  ["Fc1cc(Cl)ccc1-c1ccc(Cn2nnc3ccccc32)nc1", 2.3],
  ["Brc1cccc2c1nnn2CC1CC1", 0.6],
  ["Clc1ccc(-c2ccc(Cn3nnc4ccccc43)cn2)cc1", 1],
  ["Brc1cc(Br)c2nnn(CC3CC3)c2c1", 2.3],
  ["Fc1cc(Cl)ccc1-c1ccc(Cn2nnc3c(C(F)(F)F)cccc32)cn1", 0.2],
  ["Fc1cccc(Cn2nnc3c(Br)cccc32)c1", 1.6],
  ["Fc1cc(Cl)ccc1Cn1nnc2c(Br)cccc21", 3.8],
  ["Brc1cccc2c1nnn2CC1CCCCC1", 16.2]
]}

###

experimentDescription: Drug uptake in mouse brain at 30 mg/kg, po
Format: ADME, organism-based
conditionSummary: in vivo, read-out: Drug uptake
The following compounds are listed with their measured concentration values.
measureName: concentration (µM)

{"columns": ["compoundSmiles", "measureName", "quantitativeReadout"],
 "data": [
  ["FC(F)(F)c1cccc2c1nnn2CC1CC1", "concentration", 13.1],
  ["Fc1cc(Cl)ccc1-c1ccc(Cn2nnc3c(Br)cccc32)cn1", "concentration", 7.1],
  ["Fc1cc(Cl)ccc1-c1ccc(Cn2nnc3ccccc32)cn1", "concentration", 1.4]
]}

###

experimentDescription: Intrinsic clearance in NMRI mouse liver microsomes at 2.5 uM
Type: ADME, Microsome
measureName: log10(Intrinsic clearance) (log10 of the value in mL/min/g)

{"columns": ["compoundSmiles", "measureName", "quantitativeReadout"],
 "data": [
  ["Fc1ccc2c(c1)nnn2Cc1ccc(-c2ccc(Cl)cc2F)nc1", "log10(Intrinsic clearance)", -0.15],
  ["Fc1cc(C(F)(F)F)ccc1-c1ccc(Cn2nnc3ccccc32)cc1", "log10(Intrinsic clearance)", 0.08],
  ["Fc1cc(Cl)ccc1-c1ccc(Cn2nnc3ccccc32)nc1", "log10(Intrinsic clearance)", 0.20],
  ["Fc1ccc(Cn2nnc3c(Br)cccc32)c(Cl)c1", "log10(Intrinsic clearance)", 0.48],
  ["Brc1ccc(Cn2nnc3c(Br)cccc32)nc1", "log10(Intrinsic clearance)", 0.04],
  ["Brc1cccc2c1nnn2CC1CCC1", "log10(Intrinsic clearance)", 1.06],
  ["c1ccc(-c2ccc(Cn3nnc4ccccc43)cc2)cc1", "log10(Intrinsic clearance)", 1.06],
  ["c1ccc(Cn2nnc3ccccc32)cc1", "log10(Intrinsic clearance)", 0.00],
  ["Clc1ccc(Cn2nnc3c(Br)cccc32)cc1", "log10(Intrinsic clearance)", 0.30],
  ["Fc1cc(Cl)ccc1-c1ccc(Cn2nnc3c(C(F)(F)F)cccc32)cn1", "log10(Intrinsic clearance)", -1.00],
  ["Fc1cc(Cl)ccc1-c1ccc(Cn2nnc3ccccc32)cn1", "log10(Intrinsic clearance)", 0.53],
  ["Brc1ccc(Cn2nnc3c(Br)cccc32)cc1", "log10(Intrinsic clearance)", 0.41],
  ["Brc1cccc2c1nnn2CC1CCCC1", "log10(Intrinsic clearance)", 1.06],
  ["Fc1cc(Cl)ccc1-c1ccc(Cn2nnc3ccccc32)cc1", "log10(Intrinsic clearance)", 0.04],
  ["COc1cccc2c1nnn2CC1CC1", "log10(Intrinsic clearance)", 0.92],
  ["CC(C)Cn1nnc2c(Br)cccc21", "log10(Intrinsic clearance)", 0.54],
  ["FC(F)(F)c1ccc(-c2ccc(Cn3nnc4ccccc43)cc2)c(Cl)c1", "log10(Intrinsic clearance)", -0.40],
  ["Fc1ccc(-c2ccc(Cn3nnc4ccccc43)cc2)c(Cl)c1", "log10(Intrinsic clearance)", 0.18],
  ["Brc1cc(Br)c2nnn(CC3CC3)c2c1", "log10(Intrinsic clearance)", 1.18],
  ["FC(F)(F)c1cccc2c1nnn2CC1CC1", "log10(Intrinsic clearance)", 0.15],
  ["Fc1cc(Cl)ccc1-c1ccc(Cn2nnc3c(F)cccc32)cn1", "log10(Intrinsic clearance)", 0.34],
  ["Fc1cc(Cl)ccc1-c1ccc(Cn2nnc3c(Br)cccc32)cn1", "log10(Intrinsic clearance)", 0.58],
  ["FC(F)(F)c1cc(Br)c2nnn(CC3CC3)c2c1", "log10(Intrinsic clearance)", 0.89],
  ["Brc1cccc2c1nnn2Cc1ccccc1", "log10(Intrinsic clearance)", 0.36],
  ["Brc1cccc2c1nnn2CC1CCCCC1", "log10(Intrinsic clearance)", 1.18],
  ["Fc1ccc(-c2ccc(Cn3nnc4ccccc43)cc2)c(F)c1", "log10(Intrinsic clearance)", 0.36]
]}

###

The following compounds are listed with their measured Intrinsic clearance values.
experimentDescription: Intrinsic clearance in human liver microsomes at 2.5 uM
Assay type: ADME, Microsome

{"columns": ["compoundSmiles", "Intrinsic clearance (mL/min/g)"],
 "data": [
  ["Brc1cccc2c1nnn2CC1CC1", 1.3],
  ["Fc1cc(Cl)ccc1-c1ccc(Cn2nnc3ccccc32)cn1", 0.01],
  ["Fc1cc(Cl)ccc1-c1ccc(Cn2nnc3ccccc32)nc1", 0.8],
  ["FC(F)(F)c1ccc(-c2ccc(Cn3nnc4ccccc43)cc2)c(Cl)c1", 0],
  ["Clc1cc(Br)c2nnn(CC3CC3)c2c1", 0.5],
  ["Fc1cc(Cl)ccc1-c1ccc(Cn2nnc3c(C(F)(F)F)cccc32)cn1", 0.04]
]}

###

assayedSystem: Cytochrome P450 2C9 (Homo sapiens, UniProt P11712)
Sequence (P11712 whole entry): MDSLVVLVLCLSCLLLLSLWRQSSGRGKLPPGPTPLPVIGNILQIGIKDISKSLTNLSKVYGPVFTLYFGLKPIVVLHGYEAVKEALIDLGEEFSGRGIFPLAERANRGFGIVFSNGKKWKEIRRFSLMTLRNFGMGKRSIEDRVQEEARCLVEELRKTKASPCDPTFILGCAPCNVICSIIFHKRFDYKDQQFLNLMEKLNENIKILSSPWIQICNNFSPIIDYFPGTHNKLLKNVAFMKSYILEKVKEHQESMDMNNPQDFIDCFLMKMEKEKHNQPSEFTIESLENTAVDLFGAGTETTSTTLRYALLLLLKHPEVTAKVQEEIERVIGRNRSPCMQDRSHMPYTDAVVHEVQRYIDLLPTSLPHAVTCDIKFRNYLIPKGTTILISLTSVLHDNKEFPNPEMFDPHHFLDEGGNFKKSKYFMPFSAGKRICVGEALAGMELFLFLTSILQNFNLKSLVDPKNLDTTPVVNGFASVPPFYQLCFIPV
measureName: IC50

{"columns": ["compoundSmiles", "result"],
 "data": [
  ["Fc1cc(Cl)ccc1-c1ccc(Cn2nnc3ccccc32)cn1", "6.6 µM"]
]}

###

The following compounds are listed with their measured Intrinsic clearance values.
experimentDescription: Intrinsic clearance in NMRI mouse liver microsomes at 2.5 uM
Assay type: ADME, Microsome

{"columns": ["compoundSmiles", "Intrinsic clearance / mL/min/g"],
 "data": [
  ["Clc1ccc(-c2ccc(Cn3nnc4ccccc43)cn2)cc1", 3.8],
  ["Clc1cccc2c1nnn2CC1CC1", 5.7],
  ["Fc1ccccc1Cn1nnc2c(Br)cccc21", 1.7],
  ["Fc1cc(Cl)ccc1Cn1nnc2c(Br)cccc21", 1.3],
  ["CCCn1nnc2c(Br)cccc21", 7.7],
  ["Fc1ccc(Cn2nnc3c(Br)cccc32)cc1", 1],
  ["Fc1cc(Br)c2nnn(CC3CC3)c2c1", 5.7]
]}

###

The following compounds are listed with their measured fraction unbound values.
experimentDescription: Protein binding in rat plasma
Assay type: ADME, cell-free
conditionSummary: read-out: PPB (converted)

{"columns": ["compoundSmiles", "fraction unbound"],
 "data": [
  ["Fc1cc(Cl)ccc1-c1ccc(Cn2nnc3ccccc32)cn1", 0.006],
  ["FC(F)(F)c1cccc2c1nnn2CC1CC1", 0.1]
]}

###

The following compounds are listed with their measured EC50 values.
assayedSystem: Metabotropic glutamate receptor 2 (Homo sapiens)
Sequence (Q14416 whole entry): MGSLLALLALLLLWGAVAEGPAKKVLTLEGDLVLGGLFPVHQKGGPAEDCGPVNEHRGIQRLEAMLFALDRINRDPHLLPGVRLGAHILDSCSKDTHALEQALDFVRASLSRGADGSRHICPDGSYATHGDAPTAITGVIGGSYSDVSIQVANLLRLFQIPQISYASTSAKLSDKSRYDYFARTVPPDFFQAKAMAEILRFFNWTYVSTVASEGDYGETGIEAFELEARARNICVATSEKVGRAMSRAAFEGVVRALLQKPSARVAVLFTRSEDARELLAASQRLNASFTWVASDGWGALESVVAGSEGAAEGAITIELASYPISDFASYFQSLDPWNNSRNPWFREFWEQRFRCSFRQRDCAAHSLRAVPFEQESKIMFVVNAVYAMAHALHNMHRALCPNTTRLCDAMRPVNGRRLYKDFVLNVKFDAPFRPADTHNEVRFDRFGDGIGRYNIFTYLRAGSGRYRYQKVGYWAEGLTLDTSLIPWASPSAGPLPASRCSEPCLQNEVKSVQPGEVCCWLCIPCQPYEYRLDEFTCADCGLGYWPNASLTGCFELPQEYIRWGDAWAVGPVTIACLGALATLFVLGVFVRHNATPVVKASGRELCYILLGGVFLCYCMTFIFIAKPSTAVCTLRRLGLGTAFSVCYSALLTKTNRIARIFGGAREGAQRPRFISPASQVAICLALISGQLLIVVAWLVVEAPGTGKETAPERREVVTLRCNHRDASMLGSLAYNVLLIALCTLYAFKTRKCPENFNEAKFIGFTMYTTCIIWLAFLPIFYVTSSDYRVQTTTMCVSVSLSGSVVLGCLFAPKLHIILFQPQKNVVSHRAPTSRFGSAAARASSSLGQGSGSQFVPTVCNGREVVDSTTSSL
experimentDescription: Positive allosteric modulation of human mGluR2 expressed in human Chem1 cells assessed as increase in glutamate-induced intracellular calcium influx preincubated for 30 mins followed by glutamate addition by calcium-5 dye based fluorometric assay
measureName: EC50 (nM)

{"columns": ["compoundSmiles", "measureName", "quantitativeReadout"],
 "data": [
  ["Fc1cc(Cl)ccc1-c1ccc(Cn2nnc3c(Br)cccc32)cn1", "EC50", 6],
  ["Fc1cc(Cl)ccc1-c1ccc(Cn2nnc3c(C(F)(F)F)cccc32)cn1", "EC50", 13],
  ["Fc1ccc(Cn2nnc3c(Br)cccc32)c(Cl)c1", "EC50", 190],
  ["Fc1cc(Cl)ccc1-c1ccc(Cn2nnc3ccccc32)cc1", "EC50", 28]
]}

###

experimentDescription: Intrinsic clearance in human liver microsomes at 2.5 uM
Format: ADME, Microsome
Hi all, reminder that labels come from Intrinsic clearance, split as one (below 0.3 mL/min/g), two (0.3 mL/min/g to below 4 mL/min/g), three (4 mL/min/g or more)

{"columns": ["compoundSmiles", "categoryLabel"],
 "data": [
  ["Clc1cccc2c1nnn2CC1CC1", "three"],
  ["CCCCn1nnc2c(Br)cccc21", "three"],
  ["Fc1ccc(Cn2nnc3c(Br)cccc32)cc1", "two"],
  ["Fc1cc(C(F)(F)F)ccc1-c1ccc(Cn2nnc3ccccc32)cc1", "one"],
  ["Fc1cc(Cl)ccc1-c1ccc(Cn2nnc3c(F)cccc32)cn1", "one"],
  ["Fc1ccc(-c2ccc(Cn3nnc4ccccc43)cc2)c(Cl)c1", "two"],
  ["Fc1ccc2c(c1)nnn2Cc1ccc(-c2ccc(Cl)cc2F)nc1", "one"],
  ["N#Cc1cccc2c1nnn2Cc1ccc(-c2ccc(Cl)cc2F)nc1", "one"],
  ["CC(C)Cn1nnc2c(Br)cccc21", "three"],
  ["CCCn1nnc2c(Br)cccc21", "three"],
  ["Brc1cccc2c1nnn2CC1CCCCC1", "three"],
  ["Fc1ccccc1Cn1nnc2c(Br)cccc21", "one"],
  ["Brc1cc(Br)c2nnn(CC3CC3)c2c1", "two"],
  ["Brc1cccc2c1nnn2CC1CCCC1", "three"],
  ["c1ccc(Cn2nnc3ccccc32)cc1", "three"]
]}
